- System: HS 578T breast
- assay.text: NCI-60 one-dose screen, 48 h
- condition.context: 10 µM unless noted
About 83,000 compounds went through this panel and 20% of them were active in at least one assay; those are over-represented in the sample as a whole. Activity calls are given as the source filed them. Rule for the calls: active = growth percent below 10; inactive = the rest.
Possible outcomes: active, inactive

INSERT INTO measurements (compound, label) VALUES
  ('Cc1ccc(/C=N/NC(=O)CSc2nc3ccccc3c(=O)n2Cc2ccc(S(N)(=O)=O)cc2)cc1', 'inactive'),
  ('COC(=O)/C=C1\S/C(=N\NC(=O)c2cc3ccc2/C=C\c2ccc(cc2)/C=C\3)N(Cc2ccccc2)C1=O', 'inactive'),
  ('N#CC1=C(N)Oc2c(cnn2-c2ccc([N+](=O)[O-])cc2[N+](=O)[O-])C1c1ccccc1 (centres undefined)', 'inactive'),
  ('COc1cc(/C=N/NC(=O)c2cnn3c2NC(c2ccccc2)C3)ccc1OCc1ccccc1 (centres undefined)', 'active'),
  ('CCCN1[C@@H]2CC[C@H]1/C(=C\c1ccc(OC)c(OC)c1)C(=O)/C2=C/c1ccc(OC)c(OC)c1', 'inactive'),
  ('C#Cc1cccc(NC(=O)Nc2cccc(NC(=O)CCl)c2)c1', 'inactive'),
  ('C[C@H]1[C@H](C)CC[C@]2(C(=O)NCC#CCN3CCN(C)CC3)CC[C@]3(C)C(=CC[C@@H]4[C@@]5(C)Cc6c([nH]c7ccccc67)C(C)(C)[C@@H]5CC[C@]43C)[C@H]12', 'inactive'),
  ('COc1cc2nc(-c3ccc(C(F)(F)F)cc3)cc(OCCN3CCCCC3)c2cc1OC', 'inactive'),
  ('COc1ccc2c(c1)C(=O)CC(c1ccccc1OC)O2 (centres undefined)', 'inactive'),
  ('Nc1c(S(=O)(=O)O)cc2c3c(cccc13)C(=O)OC2=O', 'inactive'),
  ('Cc1ccc(-c2nc3ccccn3c2/C=C2/C(=O)Nc3cc(Cl)ccc32)cc1', 'inactive'),
  ('O=C(Nc1ccc(NC(=O)c2cc(=O)[nH]c3ccccc23)cc1)Nc1cccc(Cl)c1', 'inactive'),
  ('COc1ccc(-c2[nH][nH]c(=O)c2-c2nc3ccccc3s2)cc1', 'inactive'),
  ('COc1ccc2[nH]c(=O)c(CN3CCN(c4nccc(-c5ccc(Cl)cc5)n4)CC3)cc2c1', 'inactive'),
  ('CN(C)c1ccc(Nc2c3ccccc3nc3cc(NC(=O)CCN4CCCC4)ccc23)cc1', 'inactive'),
  ('O=C(Nc1ccc(-c2ccc3c(c2)NC(=O)/C3=C\c2ccc[nH]2)cc1)NC1CC1', 'inactive'),
  ('COc1cc(-c2csc(NC(=O)c3cc(F)cc(C(F)(F)F)c3)n2)cc(OC)c1OC', 'inactive'),
  ('COc1cc(NC(C)CCCNC(=O)CCC(=O)NCCCNCCCCCCCCCCNCCCNC(=O)CCC(=O)NCCCC(C)Nc2cc(OC)cc3cccnc23)c2ncccc2c1 (centres undefined)', 'inactive'),
  ('CNC(=O)c1cc(Cn2nc(C)c(NC(=O)Nc3ccc(Cl)c(C(F)(F)F)c3)c2C)ccn1', 'inactive');

* * *

- Tested on: KM12 colon
- assay.text: NCI-60 one-dose screen, 48 h (100 = growth as untreated, 0 = no growth, -100 = all killed)
- condition.context: 10 µM unless noted
This is part of a sample that, as a whole, favours compounds with a hit. Of some 83,000 tested, about 20% had one in any assay.
Threshold-based label: growth under 90% gives Condition met, growth not under 90% gives Condition not met.

INSERT INTO results (molecule, label) VALUES
  ('O=C(CCN1CCCC1)Nc1ccc2c(NCCCCc3ccccc3)c3ccccc3nc2c1', 'Condition met'),
  ('C=C1C(=O)O[C@H]2[C@H]1CC/C(COC(=O)NCC(C)c1ccc(CC(C)C)cc1)=C\CC[C@@]1(C)O[C@@H]21 (stereo partly specified)', 'Condition met'),
  ('O=C1c2ccccc2CCC12OC2c1cn(-c2ccccc2)nc1-c1ccc(Cl)cc1 (stereo unspecified)', 'Condition not met'),
  ('COc1ccc(C(=O)/C=C/c2cc3ccccc3n3nnnc23)cc1', 'Condition not met'),
  ('COc1ccc(C(=O)c2nc3ccccc3n2CC(=O)c2ccc(F)cc2)cc1', 'Condition met'),
  ('O=[N+]([O-])c1cc(Br)c2cccc3c2c1CC3', 'Condition not met'),
  ('CC(=O)[C@H]1CCC/C=C/[C@@H]2C[C@H](O)C[C@H]2[C@H](O)/C=C/C(=O)O1', 'Condition met'),
  ('COc1cccc2c1c1nc3cc(C)c(C)cc3nc1n2CCN(C)C', 'Condition met'),
  ('Cc1ccc(-c2[nH][nH]c(=O)c2-c2nc3ccccc3s2)cc1', 'Condition not met'),
  ('CCOc1cccc(-c2nc(N)nc(Nc3ccccc3SSc3ccccc3Nc3nc(N)nc(-c4cccc(OCC)c4)n3)n2)c1', 'Condition met'),
  ('CCCCN1C=CCN(CCCC)C1', 'Condition met'),
  ('COc1cc2c(c(OC)c1OC)CCC(c1cccc(NC(=O)c3cccc(Br)c3)c1)O2 (stereo unspecified)', 'Condition not met'),
  ('O=c1c2c(c(=O)n1O)c1c3ccc[nH]c3nc1c1nc3[nH]cccc3c12', 'Condition not met'),
  ('CC(C)N1C(=O)/C(=C2\SC(=S)N(C(C)C)C2=O)SC1=S', 'Condition not met'),
  ('C=C1C(=O)O[C@H]2[C@H]1CC/C(CNC(=O)CCc1ccc(OC)cc1)=C\CC[C@@]1(C)O[C@@H]21', 'Condition not met'),
  ('CCN1C(=O)/C(=C/C(=O)OC)S/C1=N\NC(=O)c1cc2ccc1/C=C\c1ccc(cc1)/C=C\2', 'Condition met'),
  ('CCOC(=O)/C(C#N)=C1/NNC(=Nc2cccnc2)S1', 'Condition not met'),
  ('COc1cc(/C=N/NC(=O)c2cnn3c2NC(c2ccccc2)C3)ccc1OCc1ccccc1 (stereo unspecified)', 'Condition met'),
  ('Cn1cc(-c2nc(-c3c[nH]c4c(Cl)nccc34)cs2)c2cc(Br)ccc21', 'Condition met');

Ref: PubChem BioAssay (NCI)
